Experiment Summary: Pharmacokinetic study in mice, ecteinamycin in plasma
Format: in vivo
Particulars: female, FVB, mouse, oral 5 mg/kg vs retro-orbital IV 2.5 mg/kg, dose adjusted, after 30 mins

Compound: C=C1OC(=O)C(C(=O)CC2OC(C(C)C(O)C(CC)C(=O)C(C)(O)C3CCC(CC)(C4CCC(O)(C(C)OC)C(C)O4)O3)C(C)CC2C)=C1O (stereo not shown)
bioavailability at 30 min: 10.9%

----------
Experiment Summary: Pharmacokinetic study in mice, ecteinamycin in plasma
Type: in vivo
Particulars: female, FVB, mouse, oral 5 mg/kg vs retro-orbital IV 2.5 mg/kg, dose adjusted, after 1 h

Compound: C=C1OC(=O)C(C(=O)CC2OC(C(C)C(O)C(CC)C(=O)C(C)(O)C3CCC(CC)(C4CCC(O)(C(C)OC)C(C)O4)O3)C(C)CC2C)=C1O (stereo not shown)
Unit Abbreviation: %
bioavailability at 1 h: 29.3
